test: The drug is tested on Z-009 corresponding to pig gut metagenome with ENA study accession number: PRJEB37062 and ENA sample accession number: ERS12561809 for biotransformation under anaerobic condition. The drug concentrations were measured over 9 timepoints collected between 0 and 24 hours of incubation by liquid-chromatography-coupled mass spectrometry (LC–MS); settings: 2 µM; note: call rule not given here
experimental_readout: Bacterial Biotransformation

> print(dat)
                                    molecule         experimental.readout           endpoint.result
 1  CN1CCC[C@@H]1CCO[C@](C)(c1ccccc1)c1ccc(Cl)cc1.O=C(O)/C=C/C(=O)O [CLEMASTINE FUMARATE]  Bacterial Biotransformation  Compound NOT metabolized
 2  CN1CCC(=C2c3ccccc3CC(=O)c3sccc32)CC1.O=C(O)/C=C/C(=O)O [KETOTIFEN FUMARATE]  Bacterial Biotransformation      Compound metabolized
 3  COC(=O)[C@H](c1ccccc1Cl)N1CCc2sccc2C1.O=S(=O)(O)O [CLOPIDOGREL BISULFATE]  Bacterial Biotransformation      Compound metabolized
 4  CC1Cc2ccccc2N1NC(=O)c1ccc(Cl)c(S(N)(=O)=O)c1 (configuration not stated) [INDAPAMIDE]  Bacterial Biotransformation  Compound NOT metabolized
 5  CN(C)C(=O)Oc1cc(OC(=O)N(C)C)cc(C(O)CNC(C)(C)C)c1 (configuration not stated)  Bacterial Biotransformation      Compound metabolized
 6               N=C(N)NC(=O)Cc1c(Cl)cccc1Cl  Bacterial Biotransformation  Compound NOT metabolized
 7  COc1ccc(CN2CCNCC2)c(OC)c1OC.Cl.Cl [TRIMETAZIDINE DIHYDROCHLORIDE]  Bacterial Biotransformation  Compound NOT metabolized
 8  CCOC(=O)[C@H](CCc1ccccc1)N[C@@H](C)C(=O)N1Cc2ccccc2C[C@H]1C(=O)O  Bacterial Biotransformation  Compound NOT metabolized
 9  CCOc1cc(CC(=O)N[C@@H](CC(C)C)c2ccccc2N2CCCCC2)ccc1C(=O)O [REPAGLINIDE]  Bacterial Biotransformation      Compound metabolized
10  COc1cc(C(=O)NCc2ccc(OCCN(C)C)cc2)cc(OC)c1OC [TRIMETHOBENZAMIDE]  Bacterial Biotransformation      Compound metabolized
11  Br.CN1CCC[C@@H]1Cc1c[nH]c2ccc(CCS(=O)(=O)c3ccccc3)cc12 [ELETRIPTAN HYDROBROMIDE]  Bacterial Biotransformation  Compound NOT metabolized
12       CCS(=O)(=O)CCn1c([N+](=O)[O-])cnc1C  Bacterial Biotransformation      Compound metabolized

====

conditions: human gut metagenome, 24 h, 2 µM
experimental_readout: Bacterial Biotransformation

> print(dat)
                                    compound           endpoint.result
 1  C[C@]12CCC(=O)C=C1[C@@H]1C[C@@H]1[C@H]1[C@@H]3[C@@H]4C[C@@H]4[C@@]4(CCC(=O)O4)[C@@]3(C)CC[C@@H]12      Compound metabolized
 2  C#C[C@]1(OC(C)=O)CC[C@H]2[C@@H]3CCC4=C[C@@H](OC(C)=O)CC[C@@H]4[C@H]3CC[C@@]21C [ETHYNODIOL DIACETATE]  Compound NOT metabolized
 3  CCCC(C)(COC(N)=O)COC(=O)NC(C)C (centres undefined)      Compound metabolized
 4  CCN(CC)C(=O)C1(c2ccccc2)CC1CN (centres undefined)  Compound NOT metabolized
 5  CN(C)CCc1c[nH]c2ccc(CS(=O)(=O)N3CCCC3)cc12  Compound NOT metabolized
 6  CSc1ccc2c(c1)C(N1CCN(C)CC1)Cc1ccccc1S2.O=C(O)/C=C\C(=O)O (centres undefined)  Compound NOT metabolized
 7  C#C[C@]1(OC(C)=O)CC[C@H]2[C@@H]3CCC4=CC(=O)CC[C@@H]4[C@H]3CC[C@@]21C [NORETHINDRONE ACETATE]      Compound metabolized
 8  COc1cc(C(=O)NCc2ccc(OCCN(C)C)cc2)cc(OC)c1OC [TRIMETHOBENZAMIDE]  Compound NOT metabolized
 9  CC1=C(CC(=O)O)c2cc(F)ccc2/C1=C\c1ccc([S+](C)[O-])cc1 (centres undefined)      Compound metabolized
10  CCOC(=O)C1=C[C@]2(CC)CCCN3CCc4c(n1c1ccccc41)[C@@H]32      Compound metabolized
11  O=C(O)c1cc(/N=N/c2ccc(S(=O)(=O)Nc3ccccn3)cc2)ccc1O      Compound metabolized
12  CC(C)NCC(O)COc1ccc(CC(N)=O)cc1 (centres undefined)  Compound NOT metabolized
13  COc1ccccc1OCCNCC(O)COc1cccc2[nH]c3ccccc3c12 (centres undefined)  Compound NOT metabolized
14  CN(C)C(=O)Oc1cccc([N+](C)(C)C)c1.[Br-] [NEOSTIGMINE BROMIDE]  Compound NOT metabolized

====

settings: human gut metagenome, 24 h, 2 µM
experimental_readout: Bacterial Biotransformation

> print(dat)
                                   molecule           endpoint.result
1  Cc1nc(Nc2ncc(C(=O)Nc3c(C)cccc3Cl)s2)cc(N2CCN(CCO)CC2)n1 [DASATINIB ANHYDROUS]      Compound metabolized
2  CC(=O)Oc1ccc(C(c2ccc(OC(C)=O)cc2)c2ccccn2)cc1      Compound metabolized
3  CCc1cccc2c3c([nH]c12)C(CC)(CC(=O)O)OCC3 (centres undefined)  Compound NOT metabolized
4  CCOC(=O)[C@H](CCc1ccccc1)N[C@@H](C)C(=O)N1CCC[C@H]1C(=O)O.O=C(O)/C=C\C(=O)O [ENALAPRIL MALEATE]  Compound NOT metabolized
5  CN(C)CCC=C1c2ccccc2COc2ccccc21 [DOXEPIN]  Compound NOT metabolized
6  Cc1ccccc1C(OCCN(C)C)c1ccccc1.O=C(O)CC(O)(CC(=O)O)C(=O)O (centres undefined) [ORPHENADRINE CITRATE]  Compound NOT metabolized
7  CN(C)CCc1c[nH]c2ccc(CS(=O)(=O)N3CCCC3)cc12  Compound NOT metabolized
8         CNCC[C@H](Oc1cccc2ccccc12)c1cccs1  Compound NOT metabolized
9  CCCCCNC(=N)N/N=C/c1c[nH]c2ccc(OC)cc12.O=C(O)/C=C\C(=O)O [TEGASEROD MALEATE]  Compound NOT metabolized

====

assay: The drug is tested on WLS-010 corresponding to human gut metagenome with ENA study accession number: PRJEB37062 and ENA sample accession number: ERS12561743 for biotransformation under anaerobic condition. The drug concentrations were measured over 9 timepoints collected between 0 and 24 hours of incubation by liquid-chromatography-coupled mass spectrometry (LC–MS); details: 2 µM
experimental_readout: Bacterial Biotransformation

compound	endpoint_result
CC(=O)Oc1ccc(C(c2ccc(OC(C)=O)cc2)c2ccccn2)cc1	Compound metabolized
CC(C)c1nc(N(C)S(C)(=O)=O)nc(-c2ccc(F)cc2)c1/C=C/[C@@H](O)C[C@@H](O)CC(=O)[O-].CC(C)c1nc(N(C)S(C)(=O)=O)nc(-c2ccc(F)cc2)c1/C=C/[C@@H](O)C[C@@H](O)CC(=O)[O-].[Ca+2]	Compound metabolized
Cc1cc(C)cc(OCC2CNC(=O)O2)c1 (centres undefined)	Compound metabolized
O=C([O-])C[C@H](O)C[C@H](O)/C=C/c1c(C2CC2)nc2ccccc2c1-c1ccc(F)cc1.O=C([O-])C[C@H](O)C[C@H](O)/C=C/c1c(C2CC2)nc2ccccc2c1-c1ccc(F)cc1.[Ca+2]	Compound metabolized
O=C(O)c1cc(/N=N/c2ccc(S(=O)(=O)Nc3ccccn3)cc2)ccc1O	Compound metabolized
CC[C@@]1(O)C(=O)OCc2c1cc1n(c2=O)Cc2cc3c(CN(C)C)c(O)ccc3nc2-1	Compound NOT metabolized
CCOC(=O)[C@H](CCc1ccccc1)N[C@@H](C)C(=O)N1Cc2ccccc2C[C@H]1C(=O)O	Compound metabolized
CC#CCn1c(N2CCC[C@@H](N)C2)nc2c1c(=O)n(Cc1nc(C)c3ccccc3n1)c(=O)n2C	Compound NOT metabolized
CCOc1ccc2nc(S(N)(=O)=O)sc2c1 [ETHOXZOLAMIDE]	Compound NOT metabolized

====

test: The drug is tested on Z-025 corresponding to rabbit gut metagenome with ENA study accession number: PRJEB37062 and ENA sample accession number: ERS12561824 for biotransformation under anaerobic condition. The drug concentrations were measured over 9 timepoints collected between 0 and 24 hours of incubation by liquid-chromatography-coupled mass spectrometry (LC–MS); conditions: 2 µM

compound	Bacterial Biotransformation
C=CC[C@@H]1/C=C(\C)C[C@H](C)C[C@H](OC)[C@H]2O[C@@](O)(C(=O)C(=O)N3CCCC[C@H]3C(=O)O[C@H](/C(C)=C/[C@@H]3CC[C@@H](O)[C@H](OC)C3)[C@H](C)[C@@H](O)CC1=O)[C@H](C)C[C@@H]2OC.O	Compound NOT metabolized
COc1ccnc(C[S+]([O-])c2nc3ccc(OC(F)F)cc3[nH]2)c1OC (configuration not stated)	Compound metabolized
CC(C)[C@H]1CC[C@H](C(=O)N[C@H](Cc2ccccc2)C(=O)O)CC1 [NATEGLINIDE]	Compound metabolized
CCOC(=O)C1=C[C@]2(CC)CCCN3CCc4c(n1c1ccccc41)[C@@H]32	Compound NOT metabolized
CCOc1ccccc1OCCN[C@H](C)Cc1ccc(OC)c(S(N)(=O)=O)c1.Cl [TAMSULOSIN HYDROCHLORIDE]	Compound NOT metabolized
C#C[C@]1(OC(C)=O)CC[C@H]2[C@@H]3CCC4=CC(=O)CC[C@@H]4[C@H]3CC[C@@]21C [NORETHINDRONE ACETATE]	Compound metabolized
O=C(O)c1cc(/N=N/c2ccc(S(=O)(=O)Nc3ccccn3)cc2)ccc1O	Compound metabolized

Cited source: ChEMBL document CHEMBL5724914
